System: deoxyribose
measurement-notes: TBARS assay, chelants 0.07-0.11 mM during ultrasound exposure, ferric iron (Example 4)
Format: biochemical
condition: 0.02-0.03 mM ferric iron, 0.07-0.11 mM chelant, 0.01% hydrogen peroxide, pH 7.5, 30 W 2 MHz 10 min
metric-name: % Ultrasound Mediated Activity vs Control (%)
// note: answer is a bare numeric in %

# example entries with known answers
O=S(=O)(O)c1ccc(-c2nnc(-c3ccccn3)nc2-c2ccc(S(=O)(=O)O)o2)o1 : 207
O=S(=O)(O)c1ccc(-c2nnc(-c3ccccn3)nc2-c2ccc(S(=O)(=O)O)cc2)cc1 : 136
O=C(O)c1ccccn1 [Picolinic Acid] : 175
Nc1ncnc2c1ncn2[C@@H]1O[C@H](COP(=O)(O)OP(=O)(O)O)[C@@H](O)[C@H]1O [Adenosine diphosphate (ADP), Adenosine diphosphate] : 280

Note: attention shifts to another entry.
The reported value for O=C(O)CC(O)(CC(=O)O)C(=O)O [Citrate] in terms of % Ultrasound Mediated Activity vs Control is 161

----------
System: deoxyribose
measurement-notes: TBARS assay, chelants during ultrasound exposure, ferrous iron (Example 1)
Format: biochemical
condition: 0.025 mM ferrous iron, 0.03-0.04 mM chelant, 0.01% hydrogen peroxide, pH 7.5, 30 W 2 MHz 10 min
Structures can show the parent of a compound that is named as a salt.
Friendly reminder: % Ultrasound Mediated Activity vs Control below 60% is met, at or above is not met.

Examples with answers:
O=C(O)CN(CCOCCOCCN(CC(=O)O)CC(=O)O)CC(=O)O : met
O=C(O)CN(CCO)CCN(CC(=O)O)CC(=O)O : met
O=C(O)CN(CC(=O)O)CC(=O)O [Nitriloacetic acid] : not met
O=C(O)CN(CCN(CC(=O)O)CC(=O)O)CC(=O)O [Ethylenediaminetetraacetic acid] : not met

Kindly review the next compound as well.
Query: Is % Ultrasound Mediated Activity vs Control strictly under 60% for the entry CC(=O)N(O)CCCCCNC(=O)CCC(=O)N(O)CCCCCNC(=O)CCC(=O)N(O)CCCCCN [Desferrioxamine mesylate] ?
Result: not met
